Molecular target: HLA-B*44 (human)
Assay: UV peptide exchange ELISA
Property Name: peptide exchange yield

Known peptide exchange yield results, listed for orientation:
* GELALKKKI | 20 to 50%
* TEREWADEW | 50 to 75%
* EEATGQFHVY | 50 to 75%
* SEIEQEIGSL | 50 to 75%
* TEDPTILRI | 50 to 75%

Now take the following binder into account.
Give its peptide exchange yield value. Item: `GEFPVRVQV`
20 to 50%
